- study target: T1, natriuretic peptide receptor-B (human)
- T1 chain: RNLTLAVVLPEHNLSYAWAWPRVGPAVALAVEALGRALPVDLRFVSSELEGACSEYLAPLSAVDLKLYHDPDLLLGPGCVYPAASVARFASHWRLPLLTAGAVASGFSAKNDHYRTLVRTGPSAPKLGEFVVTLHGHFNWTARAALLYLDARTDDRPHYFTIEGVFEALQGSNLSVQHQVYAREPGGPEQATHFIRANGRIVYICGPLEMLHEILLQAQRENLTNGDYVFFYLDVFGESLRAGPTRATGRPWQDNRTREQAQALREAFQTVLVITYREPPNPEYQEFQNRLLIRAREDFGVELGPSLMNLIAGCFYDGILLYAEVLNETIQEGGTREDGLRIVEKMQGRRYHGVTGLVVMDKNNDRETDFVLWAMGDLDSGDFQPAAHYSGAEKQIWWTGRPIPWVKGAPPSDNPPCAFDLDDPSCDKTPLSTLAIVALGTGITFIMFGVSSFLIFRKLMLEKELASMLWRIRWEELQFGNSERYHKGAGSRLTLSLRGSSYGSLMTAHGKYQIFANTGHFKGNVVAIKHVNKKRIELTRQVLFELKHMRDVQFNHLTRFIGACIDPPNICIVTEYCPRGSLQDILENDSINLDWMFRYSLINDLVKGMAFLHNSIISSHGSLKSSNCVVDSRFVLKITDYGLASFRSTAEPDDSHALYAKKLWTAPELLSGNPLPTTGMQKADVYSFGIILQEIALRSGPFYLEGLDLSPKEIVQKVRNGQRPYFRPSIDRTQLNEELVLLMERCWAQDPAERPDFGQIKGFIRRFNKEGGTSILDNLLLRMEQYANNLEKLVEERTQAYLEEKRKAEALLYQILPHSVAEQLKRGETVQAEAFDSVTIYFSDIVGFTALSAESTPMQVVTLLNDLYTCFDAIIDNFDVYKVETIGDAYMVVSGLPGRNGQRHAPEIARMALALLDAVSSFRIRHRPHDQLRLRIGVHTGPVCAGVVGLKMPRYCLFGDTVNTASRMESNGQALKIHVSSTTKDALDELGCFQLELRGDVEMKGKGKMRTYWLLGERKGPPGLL
- protocol details: cell-based or functional assay
Numbered stars: 1 amine (or outer) side, 2 acyl side, 3 side chain; on linkers, the order of the positions; unused ones are H or OH. Square brackets hold non-standard residues; d marks the D form. Ends that are not written are not given here. * marks the point of attachment. Sni = (S)-nipecotic acid, O=C([C@H]1CCCN([*:1])C1)[*:2]; Bmf = rac-2-amino-3-phenyl-butyric acid; Gly(cPent) = N[C@H](C(=O)O)C1CCCC1; Hyp = O=C(O)[C@@H]1C[C@@H](O)CN1; NMeI = CC[C@H](C)[C@H](NC)C(=O)O; NMeL = CN[C@@H](CC(C)C)C(=O)O; Octanoyl = CCCCCCCC(=O)*; Hexanoyl = CCCCCC(=O)*; leu = not defined here; Occ = octanoic acid
Reported EC50 group, cGMP in GTM-3 cells values for the following binders.
property measured: EC50 group, cGMP in GTM-3 cells

- [Occ][Sni]F[dL]L[Hyp][NMeL]DR[NMeI]-NH2 [JAL-1569]: ≤ 1 µM
- Hexanoyl-[dA][dA]FGLKLDRI-NH2 [JAL-0635]: ≤ 15 µM
- [Occ]GFGLPLDRI-NH2 [JAL-0951]: ≤ 15 µM
- [Occ][Sni]F[leu]L[Hyp][NMeL][Gly(cPent)]RI-NH2 (reading uncertain; also: printed as Occ-Sni-Phe-leu-Leu-Hyp-Nml-Cpg-Arg-Ile-NH2) [JAL-1859]: ≤ 5 µM
- Octanoyl-[Sni][Bmf][leu]L[Hyp][NMeL]DRI-NH2 (reading uncertain; also: printed as Occ-Sni-Bmf-leu-Leu-Hyp-Nml-Asp-Arg-Ile-) [JAL-1490]: ≤ 15 µM

Origin of measurements: patent US9187525B2
